Biological target: Aromatase (Homo sapiens)
Sequence (P11511 whole entry): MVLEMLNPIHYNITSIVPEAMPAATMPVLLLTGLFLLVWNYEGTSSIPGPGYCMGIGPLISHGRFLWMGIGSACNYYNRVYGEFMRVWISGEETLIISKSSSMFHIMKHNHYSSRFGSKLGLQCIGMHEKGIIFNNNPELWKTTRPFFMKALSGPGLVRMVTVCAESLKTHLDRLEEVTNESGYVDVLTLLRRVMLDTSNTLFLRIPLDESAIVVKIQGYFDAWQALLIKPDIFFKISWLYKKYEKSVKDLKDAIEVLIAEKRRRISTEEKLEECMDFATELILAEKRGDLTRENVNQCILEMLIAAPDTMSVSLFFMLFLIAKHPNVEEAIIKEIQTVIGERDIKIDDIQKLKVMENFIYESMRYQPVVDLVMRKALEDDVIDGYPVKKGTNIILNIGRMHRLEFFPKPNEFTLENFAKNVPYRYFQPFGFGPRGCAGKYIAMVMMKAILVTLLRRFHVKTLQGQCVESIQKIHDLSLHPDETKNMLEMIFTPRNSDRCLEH
Test: Inhibition of human aromatase using androstenedione as substrate assessed as remaining estrone level at 10 uM after 30 mins by LC-MS/MS analysis relative to control
Conditions: 0.5 h, read-out: Activity
MEASURED_PROPERTY: activity at 10 µM (%)
# output: bare number, implied unit %

Worked examples follow.
[[record]]
molecule = "O=C(O)c1ccc(O)cc1O [2,4-DIHYDROXYBENZOIC ACID]"
display_unit = "%"
reported_result = 93.9

[[record]]
molecule = "O=C(/C=C/c1ccc(O)c(O)c1)c1ccc(O)cc1O [BUTEIN]"
display_unit = "%"
reported_result = 87.5

[[record]]
molecule = "C[C@]12CCC(=O)C(O)=C1CC[C@@H]1[C@@H]2CC[C@]2(C)C(=O)CC[C@@H]12 [FORMESTANE]"
display_unit = "%"
reported_result = 5.1


Continue with the next molecule.
According to the records, this molecule O=C(O)c1ccc(O)cc1 [PARABEN] displays activity at 10 µM of 91.8
